B1: KIAA1671 peptide 600-615 (Uncharacterized protein KIAA1671), 16-mer library wild type / MDM2 SWIB (MDM2 SWIB/MDM2 domain, residues 17-125) (parent)
chain 1: TPEDDRSFQTVWATVF
chain 2: SQIPASEQETLVRPKPLLLKLLKSVGAQKDTYTMKEVLFYLGQYIMTKRLYDEKQQHIVYCSNDLLGDLFGVPSFSVKEHRKIYTMIYRNLVVVNQQESSDSGTSVSEN

- Variants of: B1
- procedure_details: proteomic peptide phage display deep mutational scan (ProP-PD DMS): M13 P8 16-mer library selected against immobilised GST-tagged bait for four days (rounds), NGS of the eluted pools per day and pseudo-replica
- condition_info: with MDM2 SWIB (MDM2 SWIB/MDM2 domain, residues 17-125); bait immobilised on MaxiSorp plates (10 µg), library pre-cleared on GST, 2 h binding at 4 °C, five washes; one round per day, days 1-4; value from days 2 and 3; keep out of graded; scale: average fractional NGS count over selection days 2 and 3
screen value values by entry

Item under review: chain 1 F16Y . Reported screen value?
0

Item under review: chain 1 P2D . Reported screen value?
6.18e-05

Item under review: chain 1 S7Q . Reported screen value?
0.000194

Item under review: chain 1 F16I . Reported screen value?
5.77e-05

Item under review: chain 1 W12K . Reported screen value?
9.9e-05

Item under review: chain 1 D5G . Reported screen value?
0.00021

Item under review: chain 1 R6V . Reported screen value?
0.000461

Item under review: chain 1 F8R . Reported screen value?
0

Item under review: chain 1 E3W . Reported screen value?
0.000218

Item under review: chain 1 R6H . Reported screen value?
0.000397

Item under review: chain 1 Q9N . Reported screen value?
0
